biological target: SHP2-C SH2; test: SH2 binding enrichment of the phosphorylated peptide, bacterial display (enrichment ratio); higher = better substrate or ligand; peptides without Tyr show the background;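 also: peptide library displayed on the E. coli surface as eCPX fusions, selected cells deep-sequenced, score is each peptide's frequency after selection divided by its frequency in the input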
parameter: SH2 binding enrichment

# example entries with known answers
RDSQIYAVDFE [MRPS34_Y34_L33I_YF]
0.806
ALAAPYVLYPS [CEFIP_Y1332_G1337S]
0.804
YKPGFYNLKEK [LAMA1_Y490_C485Y]
1.5
TTPGPHRSIYF [MPG_Y71_Y71H]
0.484
AHLLQYNHRVK [LGALS3_Y221]
1.13

I. RNDLDYMDSRR [GAA_Y407_W402R]
II. VEKGSYSALRA [ABCC2_Y845_L849R]
Between I and II , whose recorded SH2 binding enrichment is greater? Refer to your chosen entry by its label in the reply.
II

FYI, the data here is from the supplement of paper PMC10065799.
